- target.or.system: recombinant GRP78 (Homo sapiens, UniProt P11021)
- Construct: His; made in house; host or cells: Escherichia coli BL21
- Sequence (P11021 19-654): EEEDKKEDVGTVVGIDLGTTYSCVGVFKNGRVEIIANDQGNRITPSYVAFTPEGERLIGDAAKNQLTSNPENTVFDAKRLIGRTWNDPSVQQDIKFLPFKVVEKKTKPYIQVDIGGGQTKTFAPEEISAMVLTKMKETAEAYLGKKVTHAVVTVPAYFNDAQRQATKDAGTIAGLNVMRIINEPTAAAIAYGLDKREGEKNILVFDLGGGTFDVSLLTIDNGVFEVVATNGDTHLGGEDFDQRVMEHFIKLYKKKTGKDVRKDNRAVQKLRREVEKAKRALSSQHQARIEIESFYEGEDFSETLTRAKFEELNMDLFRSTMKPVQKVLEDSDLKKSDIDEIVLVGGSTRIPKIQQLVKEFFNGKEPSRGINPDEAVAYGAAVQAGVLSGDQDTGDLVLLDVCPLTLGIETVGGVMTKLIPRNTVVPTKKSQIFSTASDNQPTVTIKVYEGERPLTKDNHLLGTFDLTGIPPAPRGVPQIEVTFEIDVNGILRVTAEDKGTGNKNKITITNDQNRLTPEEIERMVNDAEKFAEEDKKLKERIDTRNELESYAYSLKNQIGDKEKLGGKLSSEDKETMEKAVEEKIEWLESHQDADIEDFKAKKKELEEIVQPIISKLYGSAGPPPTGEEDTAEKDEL
- assay.method.text: Isothermal titration calorimetry (ITC) with recombinant GRP78
- Assay type: binding
- reported.conditions: synthesized peptide and recombinant GRP78, 25 °C
- Experimental: Additionally, we collected purified recombinant GRP78 protein (Supporting Information: Figure S2) and HBV‐enveloped particles from the cell supernatant, followed by separation by ultracentrifugation at 4°C for isothermal titration calorimetry (ITC) experiments. […] These findings confirmed the ability of HBV to promote GRP78 expression and identified that GRP78 directly interacts with preS1 and HBV‐enveloped particles. […]
measured.parameter: N (sites)
Answer with a number only, understood to be in sites.

Consider FHSHHNRPMKSP [GBP63, phage-display 12-mer peptide […]] . Its measured N (sites) is 0.248

Consider LTPHKHHKHLHA [GBP65] . Its measured N (sites) is 10.0

Consider GSWNTFRAQPTI [GBP64, phage-display 12-mer peptide […]] . Its measured N (sites) is 2.88

Consider MKAHHSQLYPRH [GBP66, phage-display 12-mer peptide […]] . Its measured N (sites) is 10.0

Consider VTTVGMPNKSFF [GBP68] . Its measured N (sites) is 5.79

---

- target.or.system: recombinant GRP78 (Homo sapiens)
- Construct: His; made in house; host or cells: Escherichia coli BL21
- assay.method.text: Isothermal titration calorimetry (ITC) with recombinant GRP78
- Format: binding
- reported.conditions: synthesized peptide and recombinant GRP78, 25 °C
- Description: Additionally, we collected purified recombinant GRP78 protein (Supporting Information: Figure S2) and HBV‐enveloped particles from the cell supernatant, followed by separation by ultracentrifugation at 4°C for isothermal titration calorimetry (ITC) experiments. […] These findings confirmed the ability of HBV to promote GRP78 expression and identified that GRP78 directly interacts with preS1 and HBV‐enveloped particles. […]
measured.parameter: △H (kcal/mol)
Answer with a number only, understood to be in kcal/mol.

Consider GSWNTFRAQPTI [GBP64, phage-display 12-mer peptide […]] . Its measured △H is 0.486

Consider VTTVGMPNKSFF [GBP68] . Its measured △H is 3.49

Consider LTPHKHHKHLHA [GBP65] . Its measured △H is 2.58

Consider FHSHHNRPMKSP [GBP63, phage-display 12-mer peptide […]] . Its measured △H is 8.83

Consider MKAHHSQLYPRH [GBP66, phage-display 12-mer peptide […]] . Its measured △H is 1.55
